Counter-ions that a name gives are not always drawn.
readout type: melting point

Given the entry Cc1cccc(C)c1NC(=O)[C@H](C)NC(=N)N (as salt: HCl) , report its measured melting point.
159 to 161 °C

====

# melting point per entry
Structures can show the parent of a compound that is named as a salt.

N=C(N)NCC(=O)N(Cc1ccccc1)Cc1ccccc1 (as salt: HCl) [Compound 11] :: 217 to 219 °C
N=C(N)NCC(=O)NCc1ccccc1 (as salt: HCl) [Compound 15] :: 144 to 146 °C

Returns the measured melting point for the input compound. Input: CSc1cc(C)nc(SC)c1NC(=O)CNC(=N)N (as salt: HCl) [Example 3]
249 to 251 °C

Please look up its melting point: CC(C)c1cccc(C(C)C)c1NC(=O)CNC(=N)N (as salt: HCl) [Compound 2]
260 to 262 °C

Give the measured melting point of Cc1cccc(C)c1NC(=O)CN(C)C(=N)N (as salt: HCl) [Example 5] .
227 to 229 °C

Entry under review: Cc1cc(C)c(NC(=O)CNC(=N)N)c(C)c1 (as salt: HCl) [Compound 7] . Reported melting point?
> 260 °C

What value of melting point has been recorded for this entry: N=C(N)NCC(=O)Nc1c(Cl)cccc1Cl (as salt: HCl) [Compound 12]
181 to 183 °C

Data request, read-out melting point, for Cc1cccc(C)c1NC(=O)CCNC(=N)N [Example 4]
223 to 225 °C

Name the recorded melting point for Cc1cccc(C)c1NC(=O)CNC(=N)N [Example 1] .
255 to 257 °C
